Property: pIC50; scope: individual molecules
TGT: human PTPN1 (1-435) (Homo sapiens (Human), UniProt P18031)
Sequence (P18031 whole entry): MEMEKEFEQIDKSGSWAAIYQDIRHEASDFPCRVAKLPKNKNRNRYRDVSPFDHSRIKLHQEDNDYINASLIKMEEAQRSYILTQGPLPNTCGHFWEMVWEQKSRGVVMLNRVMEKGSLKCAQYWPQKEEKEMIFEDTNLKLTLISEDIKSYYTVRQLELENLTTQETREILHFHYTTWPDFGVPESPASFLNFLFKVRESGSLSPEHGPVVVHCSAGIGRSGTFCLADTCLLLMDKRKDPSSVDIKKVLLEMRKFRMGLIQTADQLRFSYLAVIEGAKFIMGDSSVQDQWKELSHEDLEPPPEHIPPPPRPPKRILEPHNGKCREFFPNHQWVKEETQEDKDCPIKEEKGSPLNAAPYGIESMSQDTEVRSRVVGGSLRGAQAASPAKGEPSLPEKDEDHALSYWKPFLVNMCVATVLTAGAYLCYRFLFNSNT
Reminder that pIC50 means the negative base-10 logarithm of the concentration expressed in mol/L.

Previously resolved entries follow.
>  <MOLECULE>
O=C(NC1CC1(F)F)c1cc(OCCCC(F)(F)F)c2sc(C(F)(F)P(=O)(O)O)c(Br)c2c1 (stereo not shown)

>  <pIC50>
7.94

$$$$
>  <MOLECULE>
NC(=O)c1cc(-c2cc[nH]n2)c2sc(C(F)(F)P(=O)(O)O)c(Br)c2c1

>  <pIC50>
5.41

$$$$
>  <MOLECULE>
CC(NC(=O)c1ccc2sc(C(F)(F)P(=O)(O)O)c(Br)c2c1)c1cccnn1 (single isomer, unassigned)

>  <pIC50>
5.62

$$$$
>  <MOLECULE>
O=P(O)(O)C(F)(F)c1sc2c(OCCCC(F)(F)F)cc(CO)cc2c1Br

>  <pIC50>
6.29

$$$$

# input For the molecule CNC(=O)c1cc(OCCCNS(C)(=O)=O)c2sc(C(F)(F)P(=O)(O)O)c(Br)c2c1 , give its reported pIC50.
# output 7.36

# input For the molecule O=C(Nc1ccc(Cn2cccn2)cc1)c1ccc2sc(C(F)(F)P(=O)(O)O)c(Br)c2c1 , give its reported pIC50.
# output 5.84

# input For the molecule O=C(Nc1ccc(Sc2ccccc2)nc1)c1ccc2sc(C(F)(F)P(=O)(O)O)c(Br)c2c1 , give its reported pIC50.
# output 6.27

---

TGT: human PTPN1 (1-435) (Homo sapiens (Human), UniProt P18031)
pIC50: −log10 of the molar value.
Where pIC50 equals or exceeds 6, the correct label is rule met; where it does not, the label is rule not met.

Take a look at these entries with their results.
>  <COMPOUND>
CC1CCS(=O)(=O)C1CCOc1cc(C(N)=O)cc2c(Br)c(C(F)(F)P(=O)(O)O)sc12 (single isomer, unassigned) [Compound 393]

>  <CLASS_ASSIGNMENT>
rule met

$$$$
>  <COMPOUND>
O=C(NC1COc2ccccc2C1)c1ccc2sc(C(F)(F)P(=O)(O)O)c(Br)c2c1 (stereo not shown) [Compound 110]

>  <CLASS_ASSIGNMENT>
rule not met

$$$$
>  <COMPOUND>
CS(=O)(=O)CCCOc1cc(-c2nc[nH]n2)cc2c(Br)c(C(F)(F)P(=O)(O)O)sc12 [Compound 439]

>  <CLASS_ASSIGNMENT>
rule met

$$$$
>  <COMPOUND>
CC(=O)N1CCC(CNC(=O)c2ccc3sc(C(F)(F)P(=O)(O)O)c(Br)c3c2)(C(F)(F)F)C1 (stereo not shown) [Compound 74]

>  <CLASS_ASSIGNMENT>
rule not met

$$$$
>  <COMPOUND>
C[C@@H](NC(=O)c1ccc2sc(C(F)(F)P(=O)(O)O)c(Br)c2c1)c1ccnn1C [Compound 176]

>  <CLASS_ASSIGNMENT>
rule not met

$$$$

With those in mind, consider the next compound.
# input Given the entry N#CCCCCNC(=O)c1ccc2sc(C(F)(F)P(=O)(O)O)c(Br)c2c1 [Compound 46] , answer whether its pIC50 meets or surpasses 6.
# output rule not met

---

TGT: human PTPN2 (1-387) (Homo sapiens (Human))
Sequence (P17706 other isoform, or with tags, fused parts or gaps): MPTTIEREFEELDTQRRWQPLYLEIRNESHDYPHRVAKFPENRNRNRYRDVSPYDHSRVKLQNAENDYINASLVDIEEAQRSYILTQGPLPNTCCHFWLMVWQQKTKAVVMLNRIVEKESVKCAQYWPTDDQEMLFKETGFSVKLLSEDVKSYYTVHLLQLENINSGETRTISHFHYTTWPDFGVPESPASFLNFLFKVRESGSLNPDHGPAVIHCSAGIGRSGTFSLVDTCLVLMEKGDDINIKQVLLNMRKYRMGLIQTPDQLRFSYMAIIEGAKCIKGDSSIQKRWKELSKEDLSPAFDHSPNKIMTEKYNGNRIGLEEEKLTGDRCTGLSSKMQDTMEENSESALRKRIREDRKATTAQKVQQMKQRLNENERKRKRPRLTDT
Property: IC50; scope: individual molecules
Reply with the number, then its unit.

Previously resolved entries follow.
>  <MOLECULE>
CS(=O)(=O)c1ccc(COc2cc(C(N)=O)cc3c(Br)c(C(F)(F)P(=O)(O)O)sc23)c(F)c1 [Compound 389]

>  <TGT>
human PTPN2 (1-387) (Homo sapiens (Human))

>  <IC50>
7.8 nM

$$$$
>  <MOLECULE>
CS(=O)(=O)c1ccc(COc2cc(C(N)=O)cc3c(Br)c(C(F)(F)P(=O)(O)O)sc23)c(C#N)c1 [Compound 463]

>  <TGT>
human PTPN2 (1-387) (Homo sapiens (Human))

>  <IC50>
6.7 nM

$$$$
>  <MOLECULE>
CCN1C(=O)CCC12C[C@H]2CCNC(=O)c1ccc2sc(C(F)(F)P(=O)(O)O)c(Br)c2c1 (some centres unmarked) [Compound 85]

>  <TGT>
human PTPN2 (1-387) (Homo sapiens (Human))

>  <IC50>
4540 nM

$$$$
>  <MOLECULE>
O=C(NCc1cc[nH]n1)c1ccc2sc(C(F)(F)P(=O)(O)O)c(Br)c2c1 [Compound 202]

>  <TGT>
human PTPN2 (1-387) (Homo sapiens (Human))

>  <IC50>
3650 nM

$$$$

# input Please report the measured IC50 for NC(=O)c1cc(CCc2ccccc2)c2sc(C(F)(F)P(=O)(O)O)c(Br)c2c1 [Compound 313] tested on human PTPN2 (1-387) (Homo sapiens (Human)).
# output 132 nM

# input Please report the measured IC50 for CS(=N)(=O)c1cc(OCCCC(F)(F)F)c2sc(C(F)(F)P(=O)(O)O)c(Br)c2c1 (centres unmarked) [Compound 413] tested on human PTPN2 (1-387) (Homo sapiens (Human)).
# output 7400 nM

# input Please report the measured IC50 for O=C(NCc1cnccn1)c1ccc2sc(C(F)(F)P(=O)(O)O)c(Br)c2c1 [Compound 123] tested on human PTPN2 (1-387) (Homo sapiens (Human)).
# output 4290 nM

# input Please report the measured IC50 for Cc1nnc(-c2cc(OCCCC(F)(F)F)c3sc(C(F)(F)P(=O)(O)O)c(Br)c3c2)[nH]1 [Compound 417] tested on human PTPN2 (1-387) (Homo sapiens (Human)).
# output 9.08 nM

# input Please report the measured IC50 for O=C(N[C@H]1CCN(C(=O)C2CC2)C1)c1ccc2sc(C(F)(F)P(=O)(O)O)c(Br)c2c1 [Compound 116] tested on human PTPN2 (1-387) (Homo sapiens (Human)).
# output 1060 nM

# input Please report the measured IC50 for CNC(=O)c1cc(OCCCC(C)(F)F)c2sc(C(F)(F)P(=O)(O)O)c(Br)c2c1 [Compound 326] tested on human PTPN2 (1-387) (Homo sapiens (Human)).
# output 16.1 nM

# input Please report the measured IC50 for O=C(Nc1ccc(F)cc1)c1ccc2sc(C(F)(F)P(=O)(O)O)c(Br)c2c1 [Compound 25] tested on human PTPN2 (1-387) (Homo sapiens (Human)).
# output 3160 nM

# input Please report the measured IC50 for CC(NC(=O)c1ccc2sc(C(F)(F)P(=O)(O)O)c(Br)c2c1)c1cccc(OC(F)(F)F)c1 (centres unmarked) [Compound 102] tested on human PTPN2 (1-387) (Homo sapiens (Human)).
# output 2460 nM
